- subject.of.test: SARS-CoV-2 S protein receptor-binding domain (R319-F541) (SARS-CoV-2, UniProt P0DTC2 319-541)
- procedure.details: ELISA
Quick reference for pEC50 among some binders
Formally, pEC50 is defined as -log10 of the concentration c, with c in mol/L.

* sdAb12 (VHH) VHH: EVQLVESGGGLVQPGGSLRLSCAASGNTFPARTMSWVRQAPGKGLELVASIGRGEITYYADSVKGRFTISRDNSKNTLYLQMNSLRAEDTAVYYCAAPAHGSWMSRRPHIYWGQGTLVTVSS | 7.22
* sdAb10 (VHH) VHH: EVQLVESGGGLVQPGGSLRLSCAASGNTFPARTMSWVRQAPGKGLELVASIGPGRSTIYADSVKGRFTISRDNSKNTLYLQMNSLRAEDTAVYYCAVAYTSGLALRGSFSYWGQGTLVTVSS | 7.65
* sdAb42 (VHH) VHH: EVQLVESGGGLVQPGGSLRLSCAASGNTSTRHPMSWVRQAPGKGLELVASIGRGEITYYADSVKGRFTISRDNSKNTLYLQMNSLRAEDTAVYYCAVDAVFGGRHSHWGQGTLVTVSS | 8.70
* sdAb39 (VHH) VHH: EVQLVESGGGLVQPGGSLRLSCAASGNTSTRHPMSWVRQAPGKGLELVASIGRGEITYYADSVKGRFTISRDNSKNTLYLQMNSLRAEDTAVYYCAAFVDFLSRHNSRRPYPHGYWGQGTLVTVSS | 8.37

# context switch: different binder, same pEC50
Which pEC50 value is on record for sdAb38 (VHH) VHH: EVQLVESGGGLVQPGGSLRLSCAASGNTSTRHPMSWVRQAPGKGLELVASIGRGEITYYADSVKGRFTISRDNSKNTLYLQMNSLRAEDTAVYYCAVCLRSVFVNCHNFAYWGQGTLVTVSS ?
7.34
